test: Ratio of drug uptake in striatum in Sprague-Dawley rat at 1 to 3 MBq, iv after 2 mins to drug uptake in striatum in Sprague-Dawley rat at 1 to 3 MBq, iv after 30 mins; settings: in vivo
If the reported Ratio equals or exceeds 5, assign 1 (yes). If not, assign 0 (no).

molecule="CCCN(C)C(=O)C1CCCc2c1c1ccccc1n2CC[18F] (stereo unspecified)" class_assignment="0 (no)"
molecule="CC(C)N(C)C(=O)C1CCCc2c1c1ccccc1n2CC[18F] (stereo unspecified)" class_assignment="0 (no)"
molecule="CCCN(CC)C(=O)C1CCCc2c1c1ccccc1n2CC[18F] (stereo unspecified)" class_assignment="0 (no)"
molecule="CN(Cc1ccccc1)C(=O)C1CCCc2c1c1ccccc1n2CC[18F] (stereo unspecified)" class_assignment="0 (no)"
molecule="O=C(C1CCCc2c1c1ccccc1n2CC[18F])N1CCCCCC1 (stereo unspecified)" class_assignment="1 (yes)"
